Quick reference: self-cleavage of the listed items.
B1: LINE1-full (parent)
chain: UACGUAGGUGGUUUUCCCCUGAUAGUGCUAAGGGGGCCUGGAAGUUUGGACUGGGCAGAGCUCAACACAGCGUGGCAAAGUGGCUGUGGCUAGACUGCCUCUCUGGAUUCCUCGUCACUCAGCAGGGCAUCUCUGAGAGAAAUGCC

# Variants of: B1
# assay_summary: self-cleavage, relative activity (ratio to wild type); higher = more cleavage; in vitro, sequencing; the parent is a self-cleaving ribozyme
Quick one: just the number, no unit, thanks!

Recorded self-cleavage, per entry:
* G72A A124U | 1.22
* U91C U134C | 0.87
* U119A U143G | 0.91
* A69U U73A | 0.04
* C17U A94U | 0.17

INPUT: Consider the variant U12G U45C and give its measured self-cleavage.
OUTPUT: 1.48

INPUT: Consider the variant U15G A43G and give its measured self-cleavage.
OUTPUT: 0.5

INPUT: Consider the variant A69G U102A and give its measured self-cleavage.
OUTPUT: 0.93

INPUT: Consider the variant C3U U119A and give its measured self-cleavage.
OUTPUT: 0.83

INPUT: Consider the variant G11A A142G and give its measured self-cleavage.
OUTPUT: 1.23

INPUT: Consider the variant C71U A124U and give its measured self-cleavage.
OUTPUT: 1
